# Test system: NCI-H1975
# test_summary: relative viability (nuclei count vs DMSO), 5 days (fraction); higher = more cells survive
# test_context: first compound 1.265 µM
Measured relative viability, listed per entry for reference.

compound	relative viability
O=C(O)c1ccc(-c2c[nH]c3ncc(-c4ccccc4)cc23)cc1C1CCCC1 + CS(=O)(=O)CCNCc1ccc(-c2ccc3ncnc(Nc4ccc(OCc5cccc(F)c5)c(Cl)c4)c3c2)o1 [Lapatinib] (partner 2 µM)	0.49
O=C(O)c1ccc(-c2c[nH]c3ncc(-c4ccccc4)cc23)cc1C1CCCC1 + Cc1nc(Nc2ncc(C(=O)Nc3c(C)cccc3Cl)s2)cc(N2CCN(CCO)CC2)n1 [Dasatinib] (partner 0.075 µM)	0.376
O=C(O)c1ccc(-c2c[nH]c3ncc(-c4ccccc4)cc23)cc1C1CCCC1 + O=C(CCCCCCC(=O)Nc1ccccc1)NO [Vorinostat] (partner 1 µM)	0.441
O=C(O)c1ccc(-c2c[nH]c3ncc(-c4ccccc4)cc23)cc1C1CCCC1 + CC(C)C[C@H](NC(=O)[C@H](Cc1ccccc1)NC(=O)c1cnccn1)B(O)O [Bortezomib] (partner 0.002 µM)	0.195
O=C(O)c1ccc(-c2c[nH]c3ncc(-c4ccccc4)cc23)cc1C1CCCC1 + Cc1cc(Nc2cc(N3CCN(C)CC3)nc(Sc3ccc(NC(=O)C4CC4)cc3)n2)n[nH]1 [Tozasertib] (partner 0.1 µM)	0.729
O=C(O)c1ccc(-c2c[nH]c3ncc(-c4ccccc4)cc23)cc1C1CCCC1 + Nc1ncn([C@H]2C[C@H](O)[C@@H](CO)O2)c(=O)n1 [Decitabine] (partner 2 µM)	0.376

Returns the measured relative viability for the input compound. Input: O=C(O)c1ccc(-c2c[nH]c3ncc(-c4ccccc4)cc23)cc1C1CCCC1 + C[C@]1(O)C[C@@H](c2nc(-c3ccc4ccc(-c5ccccc5)nc4c3)c3c(N)nccn32)C1 [Linsitinib] (partner 1 µM)
1

Returns the measured relative viability for the input compound. Input: O=C(O)c1ccc(-c2c[nH]c3ncc(-c4ccccc4)cc23)cc1C1CCCC1 + Nc1nc2[nH]cc(CCc3ccc(C(=O)N[C@@H](CCC(=O)O)C(=O)O)cc3)c2c(=O)[nH]1 [Pemetrexed] (partner 0.2 µM)
0.28

###

# Test system: COR-L23
# test_summary: relative viability (nuclei count vs DMSO), 5 days (fraction); higher = more cells survive
# test_context: first compound 2.53 µM
reported_metric: relative viability
In your answer, state the number alone without any accompanying words.

compound	reported_metric	numeric_readout
Oc1nc(-c2ccc(C(F)(F)F)cc2)nc2c1CSCC2 [XAV939] + Nc1ncn([C@H]2C[C@H](O)[C@@H](CO)O2)c(=O)n1 [Decitabine] (partner 2 µM)	relative viability	0.378
C=C1C(=O)O[C@@H](CCCCCCCC)[C@@H]1C(=O)O [C-75] + Nc1ncn([C@H]2C[C@H](O)[C@@H](CO)O2)c(=O)n1 [Decitabine] (partner 2 µM)	relative viability	0.459

Returns the measured relative viability for the input compound. Input: C=C1C(=O)O[C@@H](CCCCCCCC)[C@@H]1C(=O)O [C-75] + C[C@]1(O)C[C@@H](c2nc(-c3ccc4ccc(-c5ccccc5)nc4c3)c3c(N)nccn32)C1 [Linsitinib] (partner 1 µM)
0.632

###

Measured relative viability, listed per entry for reference.
# Test system: EPLC-272H
# test_summary: relative viability (nuclei count vs DMSO), 5 days (fraction); higher = more cells survive
# test_context: first compound 0.08 µM

Worked examples, 3 compounds total:
compound	relative viability
Oc1nc(-c2ccc(C(F)(F)F)cc2)nc2c1CSCC2 [XAV939] + CS(=O)(=O)N1CCN(Cc2cc3nc(-c4cccc5[nH]ncc45)nc(N4CCOCC4)c3s2)CC1 [Pictilisib] (partner 1 µM)	0.347
Oc1nc(-c2ccc(C(F)(F)F)cc2)nc2c1CSCC2 [XAV939] + Nc1nc2[nH]cc(CCc3ccc(C(=O)N[C@@H](CCC(=O)O)C(=O)O)cc3)c2c(=O)[nH]1 [Pemetrexed] (partner 0.2 µM)	0.312
C=C1C(=O)O[C@@H](CCCCCCCC)[C@@H]1C(=O)O [C-75] + Cc1cc(Nc2cc(N3CCN(C)CC3)nc(Sc3ccc(NC(=O)C4CC4)cc3)n2)n[nH]1 [Tozasertib] (partner 0.1 µM)	0.299

Returns the measured relative viability for the input compound. Input: Oc1nc(-c2ccc(C(F)(F)F)cc2)nc2c1CSCC2 [XAV939] + O=C(c1cc(Cc2n[nH]c(=O)c3ccccc23)ccc1F)N1CCN(C(=O)C2CC2)CC1 [Olaparib] (partner 8 µM)
0.745

###

Measured relative viability, listed per entry for reference.
# Tested on: NCI-H322M
# test_summary: relative viability (nuclei count vs DMSO), 5 days (fraction); higher = more cells survive
# test_context: first compound 0.4 µM
In your answer, state the number alone without any accompanying words.

compound	tested_on	numeric_readout
O=C(O)c1ccc(-c2c[nH]c3ncc(-c4ccccc4)cc23)cc1C1CCCC1 + Cc1cc(Nc2cc(N3CCN(C)CC3)nc(Sc3ccc(NC(=O)C4CC4)cc3)n2)n[nH]1 [Tozasertib] (partner 0.1 µM)	NCI-H322M	0.452
O=C(O)c1ccc(-c2c[nH]c3ncc(-c4ccccc4)cc23)cc1C1CCCC1 + Nc1nc2[nH]cc(CCc3ccc(C(=O)N[C@@H](CCC(=O)O)C(=O)O)cc3)c2c(=O)[nH]1 [Pemetrexed] (partner 0.2 µM)	NCI-H322M	0.589

relative viability of O=C(O)c1ccc(-c2c[nH]c3ncc(-c4ccccc4)cc23)cc1C1CCCC1 + C[C@]1(O)C[C@@H](c2nc(-c3ccc4ccc(-c5ccccc5)nc4c3)c3c(N)nccn32)C1 [Linsitinib] (partner 1 µM) on NCI-H322M?
0.92

relative viability of O=C(O)c1ccc(-c2c[nH]c3ncc(-c4ccccc4)cc23)cc1C1CCCC1 + O=C(c1cc(Cc2n[nH]c(=O)c3ccccc23)ccc1F)N1CCN(C(=O)C2CC2)CC1 [Olaparib] (partner 8 µM) on NCI-H322M?
0.661

relative viability of O=C(O)c1ccc(-c2c[nH]c3ncc(-c4ccccc4)cc23)cc1C1CCCC1 + CC(=O)Nc1cccc(-n2c(=O)n(C3CC3)c(=O)c3c(Nc4ccc(I)cc4F)n(C)c(=O)c(C)c32)c1 [Trametinib] (partner 0.02 µM) on NCI-H322M?
0.524

###

Measured relative viability, listed per entry for reference.
# Tested on: SW 1573
# test_summary: relative viability (nuclei count vs DMSO), 5 days (fraction); higher = more cells survive
# test_context: first compound 0.005 µM
In your answer, state the number alone without any accompanying words.

relative viability of CC1(C)CCC(c2ccc(Cl)cc2)=C(CN2CCN(c3ccc(C(=O)NS(=O)(=O)c4ccc(N[C@H](CCN5CCOCC5)CSc5ccccc5)c(S(=O)(=O)C(F)(F)F)c4)cc3)CC2)C1 [Navitoclax] + Cc1nc(NC(=O)N2CCC[C@H]2C(N)=O)sc1-c1ccnc(C(C)(C)C(F)(F)F)c1 [Alpelisib] (partner 2 µM) on SW 1573?
0.635

relative viability of CC1(C)CCC(c2ccc(Cl)cc2)=C(CN2CCN(c3ccc(C(=O)NS(=O)(=O)c4ccc(N[C@H](CCN5CCOCC5)CSc5ccccc5)c(S(=O)(=O)C(F)(F)F)c4)cc3)CC2)C1 [Navitoclax] + CCNC(=O)c1noc(-c2cc(C(C)C)c(O)cc2O)c1-c1ccc(CN2CCOCC2)cc1 [Luminespib] (partner 0.01 µM) on SW 1573?
0.145

relative viability of CC1(C)CCC(c2ccc(Cl)cc2)=C(CN2CCN(c3ccc(C(=O)NS(=O)(=O)c4ccc(N[C@H](CCN5CCOCC5)CSc5ccccc5)c(S(=O)(=O)C(F)(F)F)c4)cc3)CC2)C1 [Navitoclax] + CC(=O)Nc1cccc(-n2c(=O)n(C3CC3)c(=O)c3c(Nc4ccc(I)cc4F)n(C)c(=O)c(C)c32)c1 [Trametinib] (partner 0.02 µM) on SW 1573?
0.623

relative viability of CC1(C)CCC(c2ccc(Cl)cc2)=C(CN2CCN(c3ccc(C(=O)NS(=O)(=O)c4ccc(N[C@H](CCN5CCOCC5)CSc5ccccc5)c(S(=O)(=O)C(F)(F)F)c4)cc3)CC2)C1 [Navitoclax] + C[C@]1(O)C[C@@H](c2nc(-c3ccc4ccc(-c5ccccc5)nc4c3)c3c(N)nccn32)C1 [Linsitinib] (partner 1 µM) on SW 1573?
0.856

relative viability of CC1(C)CCC(c2ccc(Cl)cc2)=C(CN2CCN(c3ccc(C(=O)NS(=O)(=O)c4ccc(N[C@H](CCN5CCOCC5)CSc5ccccc5)c(S(=O)(=O)C(F)(F)F)c4)cc3)CC2)C1 [Navitoclax] + CC(=O)c1c(C)c2cnc(Nc3ccc(N4CCNCC4)cn3)nc2n(C2CCCC2)c1=O [Palbociclib] (partner 0.5 µM) on SW 1573?
0.417

relative viability of CC1(C)CCC(c2ccc(Cl)cc2)=C(CN2CCN(c3ccc(C(=O)NS(=O)(=O)c4ccc(N[C@H](CCN5CCOCC5)CSc5ccccc5)c(S(=O)(=O)C(F)(F)F)c4)cc3)CC2)C1 [Navitoclax] + O=C(CCCCCCC(=O)Nc1ccccc1)NO [Vorinostat] (partner 1 µM) on SW 1573?
0.607
